System: Escherichia coli TOP10
Assay: shrunken log2 fold change of peptide-encoding DNA abundance (4.5 h post-induction vs induction); higher = less antimicrobial activity (less host growth inhibition)
Conditions: time post-induction: 4.5 h; library: site-saturation at positions 5, 18, 19, 20
ENDPOINT LABEL: shrunken log2 fold change
Give the value as a plain number.

Worked set:
| SEQUENCE INPUT | SYSTEM UNDER TEST | REPORTED |
| --- | --- | --- |
| RRIRSRPPRLPRPRPRPKLRPRP | Escherichia coli TOP10 | 0.111 |
| RRIRWRPPRLPRPRPRPGADPRP | Escherichia coli TOP10 | 0.839 |
| RRIRLRPPRLPRPRPRPDDSPRP | Escherichia coli TOP10 | 0.0276 |

// sample RRIRGRPPRLPRPRPRPKNKPRP , its shrunken log2 fold change was 0.375

// sample RRIRGRPPRLPRPRPRPSREPRP , its shrunken log2 fold change was 0.51

----------
Tested on: Escherichia coli TOP10
Experiment: shrunken log2 fold change of peptide-encoding DNA abundance (4.5 h post-induction vs induction); higher = less antimicrobial activity (less host growth inhibition)
Conditions: time post-induction: 4.5 h; library: site-saturation at positions 5, 18, 19, 20
Decision: shrunken log2 fold change >= 0.09 yields true, all other cases yield false.

| SEQUENCE INPUT | SYSTEM UNDER TEST | LABEL CLASS |
| --- | --- | --- |
| RRIRIRPPRLPRPRPRPPQDPRP | Escherichia coli TOP10 | false |
| RRIRCRPPRLPRPRPRPEVSPRP | Escherichia coli TOP10 | true |
| RRIRCRPPRLPRPRPRPCKWPRP | Escherichia coli TOP10 | false |
| RRIRWRPPRLPRPRPRPCIKPRP | Escherichia coli TOP10 | false |
| RRIRPRPPRLPRPRPRPPAAPRP | Escherichia coli TOP10 | true |
| RRIRRRPPRLPRPRPRPDRDPRP | Escherichia coli TOP10 | true |

Answer whether shrunken log2 fold change of RRIRVRPPRLPRPRPRPDQCPRP is greater than or equal to 0.09.
false

Answer whether shrunken log2 fold change of RRIRRRPPRLPRPRPRPKKEPRP is greater than or equal to 0.09.
false

----------
Tested on: Escherichia coli TOP10
Assay: shrunken log2 fold change of peptide-encoding DNA abundance (4.5 h post-induction vs induction); higher = less antimicrobial activity (less host growth inhibition)
Conditions: time post-induction: 4.5 h; library: site-saturation at positions 5, 18, 19, 20
ENDPOINT LABEL: shrunken log2 fold change
Give the value as a plain number.

| SEQUENCE INPUT | shrunken log2 fold change |
| --- | --- |
| RRIRGRPPRLPRPRPRPARTPRP | 0.545 |
| RRIRPRPPRLPRPRPRPNCSPRP | -0.132 |
| RRIRCRPPRLPRPRPRPSSNPRP | -0.715 |
| RRIRTRPPRLPRPRPRPRKQPRP | 0.0743 |
| RRIRERPPRLPRPRPRPFGRPRP | -0.0419 |
| RRIRGRPPRLPRPRPRPQYCPRP | 0.192 |

// sample RRIRERPPRLPRPRPRPEDHPRP , its shrunken log2 fold change was -0.111

// sample RRIRYRPPRLPRPRPRPYEVPRP , its shrunken log2 fold change was -0.343

----------
Here the recorded shrunken log2 fold change is given for each entry.
Tested on: Escherichia coli TOP10
Test: shrunken log2 fold change of peptide-encoding DNA abundance (4.5 h post-induction vs induction); higher = less antimicrobial activity (less host growth inhibition)
Conditions: time post-induction: 4.5 h; library: site-saturation at positions 5, 18, 19, 20
Give the value as a plain number.

| SEQUENCE INPUT | ENDPOINT LABEL | REPORTED |
| --- | --- | --- |
| RRIRARPPRLPRPRPRPDQLPRP | shrunken log2 fold change | 0.421 |
| RRIRMRPPRLPRPRPRPIFTPRP | shrunken log2 fold change | -0.0423 |
| RRIRPRPPRLPRPRPRPCNTPRP | shrunken log2 fold change | -0.333 |
| RRIRIRPPRLPRPRPRPCDRPRP | shrunken log2 fold change | -0.563 |
| RRIRPRPPRLPRPRPRPMHWPRP | shrunken log2 fold change | 0.335 |
| RRIRHRPPRLPRPRPRPECSPRP | shrunken log2 fold change | -0.0101 |
| RRIRFRPPRLPRPRPRPLGNPRP | shrunken log2 fold change | -0.215 |
| RRIRERPPRLPRPRPRPQREPRP | shrunken log2 fold change | 0.0255 |

// sample RRIRRRPPRLPRPRPRPYRRPRP , its shrunken log2 fold change was 0.0385

// sample RRIRERPPRLPRPRPRPWYIPRP , its shrunken log2 fold change was -0.0599

// sample RRIRGRPPRLPRPRPRPVAIPRP , its shrunken log2 fold change was 0.949

// sample RRIRWRPPRLPRPRPRPHLIPRP , its shrunken log2 fold change was 0.172

// sample RRIRDRPPRLPRPRPRPNRFPRP , its shrunken log2 fold change was -0.00648

// sample RRIRQRPPRLPRPRPRPEIAPRP , its shrunken log2 fold change was -0.151

// sample RRIRFRPPRLPRPRPRPFCTPRP , its shrunken log2 fold change was -0.19

----------
Here the recorded shrunken log2 fold change is given for each entry.
System: Escherichia coli TOP10
Assay: shrunken log2 fold change of peptide-encoding DNA abundance (4.5 h post-induction vs induction); higher = less antimicrobial activity (less host growth inhibition)
Conditions: time post-induction: 4.5 h; library: site-saturation at positions 5, 18, 19, 20
Give the value as a plain number.

Worked set:
| SEQUENCE INPUT | REPORTED |
| --- | --- |
| RRIRIRPPRLPRPRPRPFCPPRP | -0.463 |
| RRIRHRPPRLPRPRPRPTLVPRP | -0.233 |
| RRIRRRPPRLPRPRPRPYQTPRP | -0.071 |

Record RRIRQRPPRLPRPRPRPGGLPRP / Escherichia coli TOP10, shrunken log2 fold change recorded as 0.28

Record RRIRMRPPRLPRPRPRPRCPPRP / Escherichia coli TOP10, shrunken log2 fold change recorded as 0.757

Record RRIRTRPPRLPRPRPRPVLVPRP / Escherichia coli TOP10, shrunken log2 fold change recorded as -0.106

Record RRIRQRPPRLPRPRPRPELAPRP / Escherichia coli TOP10, shrunken log2 fold change recorded as 0.577

Record RRIRSRPPRLPRPRPRPPHKPRP / Escherichia coli TOP10, shrunken log2 fold change recorded as 0.173

----------
Here the recorded shrunken log2 fold change is given for each entry.
Tested on: Escherichia coli TOP10
Test: shrunken log2 fold change of peptide-encoding DNA abundance (4.5 h post-induction vs induction); higher = less antimicrobial activity (less host growth inhibition)
Settings: time post-induction: 4.5 h; library: site-saturation at positions 5, 18, 19, 20
Give the value as a plain number.

Worked set:
| SEQUENCE INPUT | shrunken log2 fold change |
| --- | --- |
| RRIRARPPRLPRPRPRPWIWPRP | 0.111 |
| RRIRKRPPRLPRPRPRPKHSPRP | -0.147 |

// sample RRIRHRPPRLPRPRPRPHCRPRP , its shrunken log2 fold change was 0.0364

// sample RRIRLRPPRLPRPRPRPRSVPRP , its shrunken log2 fold change was -0.0722

// sample RRIRTRPPRLPRPRPRPNEVPRP , its shrunken log2 fold change was 0.0231

----------
Here the recorded shrunken log2 fold change is given for each entry.
Tested on: Escherichia coli TOP10
Assay: shrunken log2 fold change of peptide-encoding DNA abundance (4.5 h post-induction vs induction); higher = less antimicrobial activity (less host growth inhibition)
Conditions: time post-induction: 4.5 h; library: site-saturation at positions 5, 18, 19, 20
Give the value as a plain number.

Worked set:
| SEQUENCE INPUT | shrunken log2 fold change |
| --- | --- |
| RRIRVRPPRLPRPRPRPWLPPRP | -0.59 |
| RRIRIRPPRLPRPRPRPPMMPRP | 0.568 |
| RRIRCRPPRLPRPRPRPPFAPRP | 0.455 |

// sample RRIRRRPPRLPRPRPRPVFSPRP , its shrunken log2 fold change was -0.0171

// sample RRIRERPPRLPRPRPRPNKFPRP , its shrunken log2 fold change was -0.143

// sample RRIRTRPPRLPRPRPRPCRSPRP , its shrunken log2 fold change was -0.0198

----------
Test system: Escherichia coli TOP10;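 further: peptides expressed intracellularly from a pBAD plasmid library in pooled LB shake-flask culture, induced with 0.3% L-arabinose, DNA abundance read by NGS, three biological replicates, DESeq2 with apeglm shrinkage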
Assay: shrunken log2 fold change of peptide-encoding DNA abundance (4.5 h post-induction vs induction); higher = less antimicrobial activity (less host growth inhibition)
Settings: time post-induction: 4.5 h; library: site-saturation at positions 5, 18, 19, 20
Decision: shrunken log2 fold change >= 0.08 yields Fulfilled, all other cases yield Not fulfilled.

Check out these entries, answers already filled in.
| SEQUENCE INPUT | LABEL CLASS |
| --- | --- |
| RRIRHRPPRLPRPRPRPPTAPRP | Fulfilled |
| RRIRRRPPRLPRPRPRPKCPPRP | Fulfilled |
| RRIRRRPPRLPRPRPRPQRGPRP | Fulfilled |

Answer whether shrunken log2 fold change of RRIRPRPPRLPRPRPRPYQDPRP is greater than or equal to 0.08.
Not fulfilled

Answer whether shrunken log2 fold change of RRIRMRPPRLPRPRPRPCSSPRP is greater than or equal to 0.08.
Not fulfilled

Answer whether shrunken log2 fold change of RRIRKRPPRLPRPRPRPQRQPRP is greater than or equal to 0.08.
Fulfilled

Answer whether shrunken log2 fold change of RRIRIRPPRLPRPRPRPQIYPRP is greater than or equal to 0.08.
Not fulfilled

Answer whether shrunken log2 fold change of RRIRDRPPRLPRPRPRPPCPPRP is greater than or equal to 0.08.
Fulfilled

Answer whether shrunken log2 fold change of RRIRVRPPRLPRPRPRPRISPRP is greater than or equal to 0.08.
Not fulfilled

Answer whether shrunken log2 fold change of RRIRHRPPRLPRPRPRPTGHPRP is greater than or equal to 0.08.
Fulfilled

Answer whether shrunken log2 fold change of RRIRERPPRLPRPRPRPNPYPRP is greater than or equal to 0.08.
Not fulfilled

Answer whether shrunken log2 fold change of RRIRPRPPRLPRPRPRPIVAPRP is greater than or equal to 0.08.
Fulfilled

Answer whether shrunken log2 fold change of RRIRHRPPRLPRPRPRPFVDPRP is greater than or equal to 0.08.
Fulfilled

Answer whether shrunken log2 fold change of RRIRVRPPRLPRPRPRPDSIPRP is greater than or equal to 0.08.
Not fulfilled
